- METHOD_SUMMARY: Binding affinity to synthetic lipid 2 analogue fl-LPII
pKd: −log10 of the molar value.
OBSERVED_PROPERTY: pKd

CHEMICAL_STRUCTURE	MEASURED_VALUE
CC(C)C/C=C/C=C/C(=O)N[C@@H](CC(N)=O)C(=O)N[C@H]1CNC(=O)[C@H](c2ccc(O)c(Cl)c2)NC(=O)[C@@H](C)NC(=O)[C@H](CC(C)C)NC(=O)CNC(=O)[C@H](c2ccc(O)cc2)NC(=O)[C@@H]([C@@H](C)O)NC(=O)[C@H](c2ccc(O)cc2)NC(=O)[C@@H](CCCN)NC(=O)[C@H](Cc2ccccc2)NC(=O)[C@H]([C@H](C)O)NC(=O)[C@@H](c2ccc(O)cc2)NC(=O)[C@H](C)NC(=O)[C@@H]([C@@H](C)O)NC(=O)[C@@H](CCCN)NC(=O)[C@@H](c2ccc(O)cc2)NC1=O	6.42
CC(C)C/C=C/C=C/C(=O)N[C@@H](CC(N)=O)C(=O)N[C@H]1CNC(=O)[C@H](c2ccc(O)c(Cl)c2)NC(=O)[C@@H](C)NC(=O)[C@H](CC(C)C)NC(=O)CNC(=O)[C@H](c2ccc(O)cc2)NC(=O)[C@@H]([C@@H](C)O)NC(=O)[C@H](c2ccc(O)cc2)NC(=O)[C@@H](CCCN)NC(=O)[C@H](Cc2ccccc2)NC(=O)[C@H]([C@H](C)O)NC(=O)[C@@H](c2ccc(O)cc2)NC(=O)[C@H](c2ccc(O)cc2)NC(=O)[C@@H]([C@@H](C)O)NC(=O)[C@@H](CCCN)NC(=O)[C@@H](c2ccc(O)cc2)NC1=O	7.48
CC(C)C/C=C/C=C/C(=O)N[C@@H](CC(N)=O)C(=O)N[C@H]1CNC(=O)[C@H](c2ccc(O)c(Cl)c2)NC(=O)[C@@H](C)NC(=O)[C@H](CC(C)C)NC(=O)CNC(=O)[C@H](c2ccc(O)cc2)NC(=O)[C@H](C)NC(=O)[C@H](c2ccc(O)cc2)NC(=O)[C@@H](CCCN)NC(=O)[C@H](Cc2ccccc2)NC(=O)[C@H]([C@H](C)O)NC(=O)[C@@H](c2ccc(O)cc2)NC(=O)[C@H](c2ccc(O)cc2)NC(=O)[C@@H]([C@@H](C)O)NC(=O)[C@@H](CCCN)NC(=O)[C@@H](c2ccc(O)cc2)NC1=O	5.27
CC(C)C/C=C/C=C/C(=O)N[C@@H](CC(N)=O)C(=O)N[C@H]1CNC(=O)[C@H](c2ccc(O)c(Cl)c2)NC(=O)[C@@H](C)NC(=O)[C@H](CC(C)C)NC(=O)CNC(=O)[C@H](c2ccc(O)cc2)NC(=O)[C@@H]([C@@H](C)O)NC(=O)[C@H](c2ccc(O)cc2)NC(=O)[C@@H](CCCN)NC(=O)[C@H](Cc2ccccc2)NC(=O)[C@H]([C@H](C)O)NC(=O)[C@@H](c2ccc(O)cc2)NC(=O)[C@H](c2ccc(O)cc2)NC(=O)[C@@H](C)NC(=O)[C@@H](CCCN)NC(=O)[C@@H](c2ccc(O)cc2)NC1=O	6.35

* * *

- Test system: Escherichia coli
- METHOD_SUMMARY: Inhibition of Escherichia coli PBP1b-mediated lipid 2 incorporation into peptidoglycon at 6 uM
Activity calls are given as the source filed them. No cut-off for these calls is given here.
Outcome codes: 1 (yes) for active, 0 (no) for inactive

MOLECULE	GROUP
CC(C)C/C=C/C=C/C(=O)N[C@@H](CC(N)=O)C(=O)N[C@H]1CNC(=O)[C@H](c2ccc(O)c(Cl)c2)NC(=O)[C@@H](C)NC(=O)[C@H](CC(C)C)NC(=O)CNC(=O)[C@H](c2ccc(O)cc2)NC(=O)[C@@H]([C@@H](C)O)NC(=O)[C@H](c2ccc(O)cc2)NC(=O)[C@@H](CCCN)NC(=O)[C@H](Cc2ccccc2)NC(=O)[C@H]([C@H](C)O)NC(=O)[C@@H](c2ccc(O)cc2)NC(=O)[C@H](c2ccc(O)cc2)NC(=O)[C@@H]([C@@H](C)O)NC(=O)[C@@H](CCCN)NC(=O)[C@H](C)NC1=O	1 (yes)
CC(C)C/C=C/C=C/C(=O)N[C@@H](CC(N)=O)C(=O)N[C@H]1CNC(=O)[C@H](c2ccc(O)c(Cl)c2)NC(=O)[C@@H](C)NC(=O)[C@H](CC(C)C)NC(=O)CNC(=O)[C@H](c2ccc(O)cc2)NC(=O)[C@@H]([C@@H](C)O)NC(=O)[C@H](c2ccc(O)cc2)NC(=O)[C@@H](CCCN)NC(=O)[C@H](Cc2ccccc2)NC(=O)[C@H]([C@H](C)O)NC(=O)[C@@H](c2ccc(O)cc2)NC(=O)[C@H](C)NC(=O)[C@@H]([C@@H](C)O)NC(=O)[C@@H](CCCN)NC(=O)[C@@H](c2ccc(O)cc2)NC1=O	1 (yes)
CC(C)C/C=C/C=C/C(=O)N[C@@H](CC(N)=O)C(=O)N[C@H]1CNC(=O)[C@H](c2ccc(O)c(Cl)c2)NC(=O)[C@@H](C)NC(=O)[C@H](CC(C)C)NC(=O)CNC(=O)[C@H](c2ccc(O)cc2)NC(=O)[C@@H]([C@@H](C)O)NC(=O)[C@H](c2ccc(O)cc2)NC(=O)[C@@H](CCCN)NC(=O)[C@H](Cc2ccccc2)NC(=O)[C@H]([C@H](C)O)NC(=O)[C@H](C)NC(=O)[C@H](c2ccc(O)cc2)NC(=O)[C@@H]([C@@H](C)O)NC(=O)[C@@H](CCCN)NC(=O)[C@@H](c2ccc(O)cc2)NC1=O	0 (no)
CC(C)C/C=C/C=C/C(=O)N[C@@H](CC(N)=O)C(=O)N[C@H]1CNC(=O)[C@H](c2ccc(O)c(Cl)c2)NC(=O)[C@@H](C)NC(=O)[C@H](CC(C)C)NC(=O)CNC(=O)[C@H](c2ccc(O)cc2)NC(=O)[C@@H]([C@@H](C)O)NC(=O)[C@H](c2ccc(O)cc2)NC(=O)[C@@H](CCCN)NC(=O)[C@H](Cc2ccccc2)NC(=O)[C@H]([C@H](C)O)NC(=O)[C@@H](c2ccc(O)cc2)NC(=O)[C@H](c2ccc(O)cc2)NC(=O)[C@@H]([C@@H](C)O)NC(=O)[C@@H](CCCN)NC(=O)[C@@H](c2ccc(O)cc2)NC1=O	1 (yes)
CC(C)C/C=C/C=C/C(=O)N[C@@H](CC(N)=O)C(=O)N[C@H]1CNC(=O)[C@H](c2ccc(O)c(Cl)c2)NC(=O)[C@@H](C)NC(=O)[C@H](CC(C)C)NC(=O)CNC(=O)[C@H](c2ccc(O)cc2)NC(=O)[C@@H]([C@@H](C)O)NC(=O)[C@H](c2ccc(O)cc2)NC(=O)C(C)NC(=O)[C@H](Cc2ccccc2)NC(=O)[C@H]([C@H](C)O)NC(=O)[C@@H](c2ccc(O)cc2)NC(=O)[C@H](c2ccc(O)cc2)NC(=O)[C@@H]([C@@H](C)O)NC(=O)[C@@H](CCCN)NC(=O)[C@@H](c2ccc(O)cc2)NC1=O (single isomer, unassigned)	0 (no)
CC(C)C/C=C/C=C/C(=O)N[C@@H](CC(N)=O)C(=O)N[C@H]1CNC(=O)[C@H](c2ccc(O)c(Cl)c2)NC(=O)[C@@H](C)NC(=O)[C@H](CC(C)C)NC(=O)CNC(=O)[C@H](c2ccc(O)cc2)NC(=O)[C@@H]([C@@H](C)O)NC(=O)[C@H](c2ccc(O)cc2)NC(=O)[C@@H](CCCN)NC(=O)[C@H](Cc2ccccc2)NC(=O)[C@H]([C@H](C)O)NC(=O)[C@@H](c2ccc(O)cc2)NC(=O)[C@H](c2ccc(O)cc2)NC(=O)[C@@H](C)NC(=O)[C@@H](CCCN)NC(=O)[C@@H](c2ccc(O)cc2)NC1=O	1 (yes)
CC(C)C/C=C/C=C/C(=O)N[C@@H](CC(N)=O)C(=O)N[C@H]1CNC(=O)[C@H](c2ccc(O)c(Cl)c2)NC(=O)[C@@H](C)NC(=O)[C@H](CC(C)C)NC(=O)CNC(=O)[C@H](c2ccc(O)cc2)NC(=O)[C@@H]([C@@H](C)O)NC(=O)[C@H](C)NC(=O)[C@@H](CCCN)NC(=O)[C@H](Cc2ccccc2)NC(=O)[C@H]([C@H](C)O)NC(=O)[C@@H](c2ccc(O)cc2)NC(=O)[C@H](c2ccc(O)cc2)NC(=O)[C@@H]([C@@H](C)O)NC(=O)[C@@H](CCCN)NC(=O)[C@@H](c2ccc(O)cc2)NC1=O	0 (no)
CC(C)C/C=C/C=C/C(=O)N[C@@H](CC(N)=O)C(=O)N[C@H]1CNC(=O)[C@H](c2ccc(O)c(Cl)c2)NC(=O)[C@@H](C)NC(=O)[C@H](CC(C)C)NC(=O)CNC(=O)[C@H](c2ccc(O)cc2)NC(=O)[C@@H]([C@@H](C)O)NC(=O)[C@H](c2ccc(O)cc2)NC(=O)[C@@H](CCCN)NC(=O)[C@H](Cc2ccccc2)NC(=O)[C@H]([C@H](C)O)NC(=O)[C@@H](c2ccc(O)cc2)NC(=O)[C@H](c2ccc(O)cc2)NC(=O)[C@@H]([C@@H](C)O)NC(=O)[C@H](C)NC(=O)[C@@H](c2ccc(O)cc2)NC1=O	0 (no)
